Each entry below carries its recorded cytotoxicity at 72 h.
MEASUREMENT PROTOCOL: cytotoxicity to cultured tumor cell line HL60
CONDITIONS USED: human, hl60 cells, Suppression, 0.1 μg/ml
REPORTED METRIC: cytotoxicity at 72 h

CCCCCCC(CCCCCC/C=C/C[C@@H](O)[C@H](O)[C@@](N)(CO)C(=O)O)=NO : 6%
CCCCCCCCCCCCCCCC[C@@H](O)[C@H](O)[C@@](N)(CO)C(=O)O : 7%
CCCCCCCCCCCCC/C=C/C[C@@H](O)[C@H](O)[C@@](N)(CO)C(=O)O : 0%

====

Each entry below carries its recorded cytotoxicity at 72 h.
MEASUREMENT PROTOCOL: cytotoxicity to cultured tumor cell line HL60
CONDITIONS USED: human, hl60 cells, Suppression, 1 μg/ml
REPORTED METRIC: cytotoxicity at 72 h (%)

CCCCCCCCCCCCC/C=C/C[C@@H](O)[C@H](O)[C@@](N)(CO)C(=O)O [Example 5] : 5
CCCCCCC(CCCCCC/C=C/C[C@@H](O)[C@H](O)[C@@](N)(CO)C(=O)O)=NO [Example 4] : 0
CCCCCCCCCCCCCCCC[C@@H](O)[C@H](O)[C@@](N)(CO)C(=O)O [Example 2] : 1.6

====

Test system: human allogenic MLR (human peripheral blood lymphocytes)
MEASUREMENT PROTOCOL: human allogenic MLR-suppressive activity, 3H-thymidine uptake
Type: cell-based
CONDITIONS USED: 0.01 μg/ml; Donor A/Donor B
REPORTED METRIC: 3H-thymidine uptake

CCCCCCC(O)C=CCCCCC=CCC(O)C(O)C(N)(CO)C(=O)O (stereo not shown) [Example 1] : 7479 cpm
CCCCCCCCCCCCC/C=C/C[C@@H](O)[C@H](O)[C@@](N)(CO)C(=O)O [Example 5] : 5042 cpm
CCCCCCC1(CCCCCC/C=C/C[C@@H](O)[C@H](O)[C@@](N)(CO)C(=O)O)SCCS1 [Example 3] : 7790 cpm
CCCCCCCCCCCCCCCC[C@@H](O)[C@H](O)[C@@](N)(CO)C(=O)O [Example 2] : 8119 cpm

====

System: IL-3 production in PHA-stimulated mouse spleen cells
MEASUREMENT PROTOCOL: suppression of IL-3 production in PHA-stimulated mouse spleen cells
Format: cell-based
CONDITIONS USED: Mus musculus, 24 h; 0.001 μg/ml; read-out: Suppression
Each entry below carries its recorded inhibition at 0.001 µg/mL.
REPORTED METRIC: inhibition at 0.001 µg/mL

CCCCCCCCCCCCC/C=C/C[C@@H](O)[C@H](O)[C@@](N)(CO)C(=O)O : 10.2%
CCCCCCC1(CCCCCC/C=C/C[C@@H](O)[C@H](O)[C@@](N)(CO)C(=O)O)SCCS1 : 0%
N[C@](CO)(C(=O)O)[C@@H](O)[C@H](O)CCO : 2.9%
CCCCCCC(O)C=CCCCCC=CCC(O)C(O)C(N)(CO)C(=O)O (stereo not shown) : 6.8%

====

System: human allogenic MLR (human peripheral blood lymphocytes)
MEASUREMENT PROTOCOL: human allogenic MLR-suppressive activity, 3H-thymidine uptake
Assay type: cell-based
CONDITIONS USED: 1 μg/ml; Donor C/Donor D
Each entry below carries its recorded 3H-thymidine uptake.
REPORTED METRIC: 3H-thymidine uptake

CCCCCCCCCCCCC/C=C/C[C@@H](O)[C@H](O)[C@@](N)(CO)C(=O)O [Example 5] : 5601 cpm
CCCCCCC1(CCCCCC/C=C/C[C@@H](O)[C@H](O)[C@@](N)(CO)C(=O)O)SCCS1 [Example 3] : 5143 cpm
CCCCCCCCCCCCCCCC[C@@H](O)[C@H](O)[C@@](N)(CO)C(=O)O [Example 2] : 6583 cpm
CCCCCCC(O)C=CCCCCC=CCC(O)C(O)C(N)(CO)C(=O)O (stereo not shown) [Example 1] : 6689 cpm

====

Each entry below carries its recorded IL-2 activity.
Test system: IL-2 production in PHA-stimulated mouse spleen cells
MEASUREMENT PROTOCOL: suppression of IL-2 production in PHA-stimulated mouse spleen cells
Type: cell-based
CONDITIONS USED: 0.1 μg/ml
Excerpt: The suppression of IL-2 and IL-3 production in the mitogen-stimulated mouse spleen cells was examined as follows: […] IL-2 dependent mouse cell line CTLL-2 cells were suspended in the RPMI1640 culture medium supplemented with 30% FCS to the concentration of 2×10^5 cells/ml. […] The IL-2 activity is expressed in U/ml as the dilution at which the absorbancy measured by MTT method was 50% of the maximum.
REPORTED METRIC: IL-2 activity (U/ml)

CCCCCCCCCCCCCCCC[C@@H](O)[C@H](O)[C@@](N)(CO)C(=O)O [Example 2] : 6.1
CCCCCCC1(CCCCCC/C=C/C[C@@H](O)[C@H](O)[C@@](N)(CO)C(=O)O)SCCS1 [Example 3] : 12.6
CCCCCCC(O)C=CCCCCC=CCC(O)C(O)C(N)(CO)C(=O)O (centres unmarked) [Example 1] : 3.7
N[C@](CO)(C(=O)O)[C@@H](O)[C@H](O)CCO [Example 6] : 9.5
CCCCCCCCCCCCC/C=C/C[C@@H](O)[C@H](O)[C@@](N)(CO)C(=O)O [Example 5] : 4.3

====

MEASUREMENT PROTOCOL: cytotoxicity to cultured tumor cell line MOLT4
Format: cell-based, human
CONDITIONS USED: human, molt4 cells, 10 μg/ml; read-out: Suppression
Each entry below carries its recorded cytotoxicity at 72 h.
REPORTED METRIC: cytotoxicity at 72 h (%)

CCCCCCCCCCCCC/C=C/C[C@@H](O)[C@H](O)[C@@](N)(CO)C(=O)O : 16.2
CCCCCCC(CCCCCC/C=C/C[C@@H](O)[C@H](O)[C@@](N)(CO)C(=O)O)=NO : 12.1
CCCCCCCCCCCCCCCC[C@@H](O)[C@H](O)[C@@](N)(CO)C(=O)O : 9.4

====

Tested on: IL-2 production in PHA-stimulated mouse spleen cells
MEASUREMENT PROTOCOL: suppression of IL-2 production in PHA-stimulated mouse spleen cells
Assay type: cell-based
CONDITIONS USED: 0.01 μg/ml
Each entry below carries its recorded IL-2 activity.
REPORTED METRIC: IL-2 activity

CCCCCCCCCCCCC/C=C/C[C@@H](O)[C@H](O)[C@@](N)(CO)C(=O)O : 4.6 U/ml
CCCCCCC(O)C=CCCCCC=CCC(O)C(O)C(N)(CO)C(=O)O (centres unmarked) : 6.1 U/ml
CCCCCCCCCCCCCCCC[C@@H](O)[C@H](O)[C@@](N)(CO)C(=O)O : 7.0 U/ml
CCCCCCC1(CCCCCC/C=C/C[C@@H](O)[C@H](O)[C@@](N)(CO)C(=O)O)SCCS1 : 13.9 U/ml
N[C@](CO)(C(=O)O)[C@@H](O)[C@H](O)CCO : 10.2 U/ml

====

System: mouse allogenic MLR (BALB/c mouse spleen cells stimulated with C57BL/6 mouse spleen cells)
MEASUREMENT PROTOCOL: mouse allogenic mixed lymphocyte reaction (MLR), 3H-thymidine uptake
Type: cell-based
CONDITIONS USED: 0.01 μg/ml; Table 1A
REPORTED METRIC: log10 3H-thymidine uptake (log10 of the value in cpm)

CCCCCCCCCCCCC/C=C/C[C@@H](O)[C@H](O)[C@@](N)(CO)C(=O)O [Example 5] : 3.15
CCCCCCC(CCCCCC/C=C/C[C@@H](O)[C@H](O)[C@@](N)(CO)C(=O)O)=NO [Example 4] : 4.19
CCCCCCC(O)C=CCCCCC=CCC(O)C(O)C(N)(CO)C(=O)O (stereo not drawn) [Example 1] : 4.04
CCCCCCC1(CCCCCC/C=C/C[C@@H](O)[C@H](O)[C@@](N)(CO)C(=O)O)SCCS1 [Example 3] : 4.15
CCCCCCCCCCCCCCCC[C@@H](O)[C@H](O)[C@@](N)(CO)C(=O)O [Example 2] : 4.08
N[C@](CO)(C(=O)O)[C@@H](O)[C@H](O)CCO [Example 6] : 4.14

====

MEASUREMENT PROTOCOL: cytotoxicity to cultured tumor cell line U937
Format: cell-based, human
CONDITIONS USED: human, u937 cells, 10 μg/ml; read-out: Suppression
REPORTED METRIC: cytotoxicity at 72 h (%)

CCCCCCCCCCCCCCCC[C@@H](O)[C@H](O)[C@@](N)(CO)C(=O)O : 1.3

====

System: IL-3 production in PHA-stimulated mouse spleen cells
MEASUREMENT PROTOCOL: suppression of IL-3 production in PHA-stimulated mouse spleen cells
Type: cell-based
CONDITIONS USED: Mus musculus, 24 h; 0.1 μg/ml; read-out: Suppression
REPORTED METRIC: inhibition at 0.1 µg/mL

N[C@](CO)(C(=O)O)[C@@H](O)[C@H](O)CCO : 4.9%
CCCCCCC1(CCCCCC/C=C/C[C@@H](O)[C@H](O)[C@@](N)(CO)C(=O)O)SCCS1 : 0%
CCCCCCC(O)C=CCCCCC=CCC(O)C(O)C(N)(CO)C(=O)O (stereo not shown) : 66.8%
CCCCCCCCCCCCC/C=C/C[C@@H](O)[C@H](O)[C@@](N)(CO)C(=O)O : 51%
